test system: HOP-92; experiment: NCI tumour cell line growth inhibition, 48 h
The source made the active and inactive calls. No stated cut-off is given here; in the data, active = GI50 up to about 1.1 µM and inactive = higher.
endpoint.label: GI50

Illustrative cases are given below, each with its answer.
Please report the recorded GI50 for "COc1ccc2c(c1)nc1n2C(N)=Nc2ccccc2S1" . 3.79 µM (inactive)

So what does the record say about GI50 for "O=[N+]([O-])c1ccc(-n2nc3ccc4c(no[n+]4[O-])c3[n+]2[O-])c([N+](=O)[O-])c1" ? 2.96 µM (inactive)

Any idea what GI50 was measured for CN(C)c1ccc(C(C#N)N2CCCN(C(C#N)c3ccc(N(C)C)cc3)C2c2ccc(N(C)C)cc2)cc1 (stereo not given) ? > 100 µM (inactive)

So what's the measured GI50 for this one? CCC(=O)N(c1ccccc1)C(C)CN1CCC(O)(c2ccccc2)CC1 (stereo not given) > 100 µM (inactive)

// GI50 lookup, key: CSc1nc2c(nc(N)n2C2OC(CO)C(O)C(O)C2O)c(=O)[nH]1 (stereo not given) > 100 µM (inactive)

Others:
Given the compound "Cc1ccc(C(=O)/C=C2/Nc3ccc([N+](=O)[O-])cc3N/C2=C/C(=O)c2ccc(C)cc2)cc1" , what is its reported GI50? 61.4 µM (inactive)

# get_value(readout='GI50', item= "O=S(=O)(O)c1cc(S(=O)(=O)O)c2cc(/N=N/c3c(O)ccc4ccccc34)ccc2c1" ) > 100 µM (inactive)

Form field: reported GI50 of "C/C(=N\NC(N)=S)c1nc2cccnc2[nH]1" 98.2 µM (inactive)

GI50 for "COC1=CC(=O)C2=C(C[C@@]3(C)C(=C2)C(CO)=CC[C@H]3O)C1=O" ? 11 µM (inactive)

Given Cc1ccc(S(=O)(=O)OC2CN3CCC2CC3)cc1 (stereo not given) , state its recorded GI50. > 100 µM (inactive)

====

# key: entry, value: GI50
test system: OVCAR-4; experiment: NCI tumour cell line growth inhibition, 48 h
The source made the active and inactive calls. Rule as the data show it: active = GI50 up to about 1.1 µM and inactive = higher.

Solved entries:
Look up GI50 with OVCAR-4 for this molecule: "ClC(Cl)=C1C(=C(Cl)Cl)C(Cl)(Cl)C1(Cl)Cl" 5.07 µM (inactive)

For OVCAR-4, provide GI50 of COc1cc([C@@H]2c3cc4c(cc3[C@@H](OC3OC5COC(C)OC5C(OC(=O)CN5CCN(C)CC5)C3OC(=O)CN3CCN(C)CC3)C3COC(=O)[C@@H]32)OCO4)cc(OC)c1OC(=O)CN1CCN(C)CC1 (some centres undefined) please. > 100 µM (inactive)

Write down the reported GI50 of "O=c1cc(NNc2cccc(F)c2)[nH]c(=O)[nH]1" , test system: OVCAR-4. > 100 µM (inactive)

Value wanted: GI50 (OVCAR-4) of entry COc1ccc(N[S+]([O-])c2ccc(Cl)cc2)cc1 (centres undefined) > 100 µM (inactive)

OVCAR-4 / GI50 / "CCOc1ccc2c(ccc(/C=C/c3cc(C)c4cccnc4c3O)[n+]2C)c1" : value? 1.7 µM (inactive)

Continuing:
Param readout= GI50; system= OVCAR-4; entry= Cc1cn(C(CO)OC(CO)CN(O)C2C3CC4CC(C3)CC2C4)c(=O)[nH]c1=O (centres undefined) ; returns value. > 100 µM (inactive)

Observed GI50 on OVCAR-4 for CC1(C)CCC[C@@]2(C)C1C[C@H](O)[C@@]1(C)O[C@@](C)([C@H](O)CO)CCC21 (some centres undefined) , please. 35.7 µM (inactive)

====

test system: SK-MEL-5; assay: NCI tumour cell line growth inhibition, 48 h
Active and inactive are the calls of the source. Cut-off read from the data, not from the text of the source: active = GI50 up to about 1.1 µM and inactive = higher.
Your reply should match one of these outcome classes. label 1 = active, label 0 = inactive

Previously resolved entries follow.
In this assay, the call recorded for "C[C@@H](c1ccccc1)N(CC#N)[C@H]1CCC[C@]1(O)/C=C/c1ccc2c(c1)OCO2" was what? label 0

Per the records of this test, what outcome belongs to CC1=C(C#N)C(=O)CC(c2ccc(Cl)cc2)N(C)N1 (stereo not given) ? label 0

Field: outcome | Entry: COC(=O)C1C=CN(N(C)C)C2=C1C(=O)c1c(O)cccc1C2=O (stereo not given) label 1

Please state the recorded outcome for this compound: "OC(CC(CC(O)(C(F)(F)Cl)C(F)(F)Cl)=NNc1ccccc1)(C(F)(F)Cl)C(F)(F)Cl" label 0

New cases:
# lookup: test call for "O=c1[nH]c(Nc2nc3ccccc3[nH]2)nc2c1CCC2" label 0

====

test system: OVCAR-4; assay: NCI tumour cell line growth inhibition, 48 h
The source made the active and inactive calls. Rule as the data show it: active = GI50 up to about 1.1 µM and inactive = higher.
Collected GI50 values appear next to each entry.

Use the examples below as a reference point.
Returns the measured GI50 for the input molecule. Input: "Cc1ccnc2nc(-c3ccc(Cl)cc3)cc(O)c12" > 23.8 µM (inactive)

State the recorded GI50 for this entry: Clc1cc2nn(C3CCCCO3)nc2cc1Cl (stereo unspecified) > 100 µM (inactive)

Consider the molecule CC(=O)OCC1OC(n2c(-c3ccc(C)cc3)cc(-c3ccccc3)c(C#N)c2=S)C(OC(C)=O)C(OC(C)=O)C1OC(C)=O (stereo unspecified) and give its measured GI50. 81.1 µM (inactive)

Entry under review: "CC(=O)n1[nH]c(=O)n(-c2ccccc2)c1=O" . Reported GI50? > 100 µM (inactive)

What value of GI50 has been reported for the following molecule? "Nc1nc(N)c2ncn(Cc3ccccc3)c2n1" > 100 µM (inactive)

I have this molecule here, "CC(C)c1ccc(NC(=S)NC(=O)c2ccccc2)cc1" , and I need its recorded GI50. 16.9 µM (inactive)

More entries:
Endpoint output: GI50 of "N#CC(C#N)=C(C(C#N)C#N)C(C#N)C#N" . Value? > 100 µM (inactive)

Using the record for "Cc1nc(O)c2c3c(sc2n1)CCCC3" , report its GI50. > 100 µM (inactive)

I have this molecule here, "CSCCCNC(=O)c1csc(-c2csc(C(CNC(=O)OC(C)(C)C)CNC(=O)OC(C)(C)C)n2)n1" , and I need its recorded GI50. 26.9 µM (inactive)

Consider the molecule shown here: "O=c1cc(-c2ccccc2)[nH]c2ccc(N3CCCCC3)cc12" What is its recorded GI50? > 100 µM (inactive)

I would be grateful if you could share the reported GI50 for "COC(=O)c1cc(-c2ccc3ccccc3c2)nc(O)c1C#N" . > 100 µM (inactive)

If you can, please state the reported GI50 value of "Cc1ccc(C(=O)CCC2C(=O)CC(C)(C)CC2=O)cc1" . > 100 µM (inactive)

// query GI50 value for entry COc1cc(C(O)c2ccc3c(c2)OCO3)cc(OC)c1OC (stereo unspecified) > 100 µM (inactive)

Any idea what its GI50 is? The molecule is CCC12C[N+]3([O-])CCc4c([nH]c5ccccc45)C(C(=O)OC)(c4cc5c(cc4OC)N(C)C4C(O)(C(=O)OC)C(OC(C)=O)C6(CC)C=CCN7CCC54C76)CC(C3)C1O2 (stereo unspecified) 13.3 µM (inactive)

For the molecule shown here, "CCc1c(C#N)c(=O)[nH]c(=O)n1CCN1CCN(C(=O)NCCCCCCNC(=O)N2CCN(CCn3c(CC)c(C#N)c(=O)[nH]c3=O)CC2)CC1" , give the reported GI50. > 100 µM (inactive)

Which value of GI50 has been reported for O=S(=O)(c1ccccc1)N1N=C2c3ccccc3CCC[C@H]2C1c1ccccc1 (stereo partly specified) in the records? > 100 µM (inactive)

====

Heads up, these compounds all have GI50 values measured for HCT-15.
Answer with a number only, understood to be in µM.

Consider the worked cases shown below.
Form entry - test system: HCT-15; read-out: GI50; compound: "CCCCCCCCCCCCC/C=C(/COCC[N+](C)(C)C)OC(C)=O.CCCCCCCCCCCCCC/C(=C/OCC[N+](C)(C)C)OC(C)=O" 3.43

GET /values?readout=GI50&system=HCT-15&item= CC1(C)CCC[C@@]2(C)C1C[C@H](O)[C@@]1(C)O[C@@](C)([C@H](O)CO)CCC21 (stereo partly drawn) 45.5

Write down the reported GI50 of "Cc1ccc2c(=O)cc(Cc3csc4ccccc34)[nH]c2n1" , test system: HCT-15. 12.1

Give the reported GI50 for "O=c1cc(-c2ccccc2)[nH]c2ccc(N3CCCCC3)cc12" (system: HCT-15). 0.0329

Request: GI50, test system HCT-15, entry CCC12C[N+]3([O-])CCc4c([nH]c5ccccc45)C(C(=O)OC)(c4cc5c(cc4OC)N(C)C4C(O)(C(=O)OC)C(OC(C)=O)C6(CC)C=CCN7CCC54C76)CC(C3)C1O2 (stereo not drawn) 4.47

Provide value of GI50 for this record tested with HCT-15: "Cc1ccc(Nc2nc(=O)c3c([nH]c4ccccc43)s2)cc1" 7.55

Kindly state the measured GI50 obtained for COc1cc(S(=O)(=O)Nc2ccc(-c3csc(N4C(=O)CSC4c4ccccc4O)n3)cc2)ccc1Cl (stereo not drawn) with HCT-15. 58.5

Please turn your attention to the following entry.
# query: GI50 | item "CCOc1cc(/C=C2\N=C(c3ccccc3)N(c3nc4ccccc4s3)C2=O)ccc1O" | system: HCT-15 24.5
